Values compiled from patent US12612424B2.

The entries below are paired with their reported JAKs/HPK1 IC50 Ratio, B*.
Target: JAK3 (Homo sapiens, UniProt P52333)
Construct: purchased Thermo fisher PV3855
Sequence (P52333 781-1124 limits assumed): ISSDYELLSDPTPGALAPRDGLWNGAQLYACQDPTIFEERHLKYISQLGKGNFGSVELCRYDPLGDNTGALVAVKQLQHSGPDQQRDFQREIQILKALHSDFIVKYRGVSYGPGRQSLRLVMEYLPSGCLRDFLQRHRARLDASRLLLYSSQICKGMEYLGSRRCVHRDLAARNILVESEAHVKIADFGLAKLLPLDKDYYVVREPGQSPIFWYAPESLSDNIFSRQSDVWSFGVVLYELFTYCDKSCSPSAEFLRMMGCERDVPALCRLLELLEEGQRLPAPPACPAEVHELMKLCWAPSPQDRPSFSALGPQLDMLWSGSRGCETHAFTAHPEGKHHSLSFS
Experiment: JAK3 biochemical assay (ADP-GLO Kinase Assay)
Conditions: ratio of JAK3 IC50 to HPK1 IC50; first testing facility

• CCC(CC)COC(=O)Cc1cn(-c2nc(Nc3cc4c(cc3OC)CCN(C)C4)ncc2Cl)c2ccccc12 [Example 131] = >82
• COc1cc2c(cc1Nc1ncc(Cl)c(N3CC(C(=O)N(C)O)c4ccccc43)n1)CN(C)CC2 (stereo not drawn) [Example 102] = >2603

Let us move to another entry and its JAKs/HPK1 IC50 Ratio, B*.
Prompt: Given the molecule CCOC(=O)CC1(C)CN(c2nc(Nc3cc4c(cc3OC)CCN(C)C4)ncc2Cl)c2ccccc21 (stereo not drawn) [Example 149] , what is its reported JAKs/HPK1 IC50 Ratio, B*?
Completion: >944
